This section presents compounds with their documented growth values.
- Tested on: SN12C renal
- protocolSummary: NCI-60 one-dose screen, 48 h (100 = growth as untreated, 0 = no growth, -100 = all killed)
- testSettings: 10 µM unless noted
Compounds without any hit were thinned out: in the full panel of roughly 83,000, 20% have a hit.
Give the number; % is assumed, so skip it.

Take a look at these entries with their results.
compound	growth / %
Nc1n[nH]c2cccc(C#Cc3cccc(NC(=O)c4cc(N5CCOCC5)cc(C(F)(F)F)c4)c3)c12	57.6
Cc1nc2sc(C(=O)Nc3ccccc3)c(N)c2cc1C(C)O (stereo not given)	43.2
CC1CCN(CCCCCOc2ccc3oc4ccccc4c(=O)c3c2)CC1	69.3
O=C(O)CCNC1CCCCC1	88.3
COC(=O)c1cc2c3c(cc(O)c2[nH]1)N(C(=O)C1Cc2cc(OC)c(OC)c(OC)c2N1)CC3CCl (stereo not given)	-88.9

Input line: Can you share its growth? I mean this compound: `N#CCNc1ccc(C(=O)O)cc1`
Output line: 103

Input line: # growth lookup, item `O=C1[C@@H](OS(=O)(=O)CC(F)(F)F)[C@H](c2ccc(F)cn2)N1c1cc2c3ccccc3ccc2c2ccccc12`
Output line: 80.7

Input line: Look at this compound and give its reported growth. `COc1cc(C(=O)Nc2cc(OC)c3ccn(C)c3c2)cc2c1C[C@]1(C)CC[C@@H](O)C(C)(C)[C@H]1O2`
Output line: 46.8

Input line: Request the reported growth associated with `CCOC(=O)c1c(C)nc2c(c1N)CC(=O)N2CCc1ccccc1`
Output line: 24.3

Input line: What measured growth goes with O=C(Nc1ccc(N=Cc2ccccc2O)cc1)NC1C=c2ccccc2=CC1 (stereo not given) ?
Output line: 102

Input line: Value lookup for growth; key = `N#Cc1c(-c2ccc(F)cc2)nc(N/N=C/c2cccc(O)c2)nc1N1CCOCC1`
Output line: 96.7

Input line: So what does the record say about growth for `O=c1c2ccccc2oc2ccc(OCCCCCN3CCCCCC3)cc12` ?
Output line: 69.4

Input line: Consider the compound shown here: `CCOC(=O)C1CCN(S(=O)(=O)/N=C2/NC(=O)NC2=C(Cl)Cl)CC1` What is its recorded growth?
Output line: -35.1

Input line: Given the entry `O=S(=O)(O)c1ccc(N=NSc2ccc3ccccc3c2)cc1` , report its measured growth.
Output line: 107

Input line: Which value of growth has been reported for `c1ccc(-c2cn3ccnc3c(-c3ccc4c(c3)ncn4C3CCCCC3)n2)cc1` in the records?
Output line: 95.2

====

- Tested on: K-562 leukemia
- protocolSummary: NCI-60 one-dose screen, 48 h (100 = growth as untreated, 0 = no growth, -100 = all killed)
- testSettings: 10 µM unless noted
This is part of a sample that, as a whole, favours compounds with a hit. Of some 83,000 tested, about 20% had one in any assay.
quantityKind: growth (%)
# output: bare number, implied unit %

Input line: Given the compound `COC(=O)CCc1n(Cc2ccc3ccccc3c2)c2ccccc2[n+]1Cc1ccc2ccccc2c1` , what is its reported growth?
Output line: 9.25

Input line: Fill blank: measured growth of the compound `N#Cc1ccc(Oc2ccc3ccc(=O)oc3c2)cc1` is ____.
Output line: 79

Input line: Bench note: what growth did `COc1ccc(-c2[nH]c3ccc(OC)cc3c2C=C(C#N)C#N)cc1` show?
Output line: 4.8

Input line: What value of growth has been reported for the following compound? `COc1ccc(NC(=O)Nc2ccc(Nc3nc(C)cc(Nc4ccc(C)cc4)n3)cc2)cc1`
Output line: -60.9

Input line: Find the recorded growth belonging to `Cc1nnc(/N=C2\NC(=O)/C(=C/c3ccc(N(C)C)cc3)S2)s1` and report it.
Output line: 49.7

Input line: Recorded growth for Cc1cccc(C)c1NC(=O)CN(CC(C)C)CC(O)COc1ccccc1 (stereo not given) , please?
Output line: 96

Input line: Param item = `NC[C@@H]1CCN(c2cc3c(cc2F)c(=O)n(N)c(=O)n3Cc2ccc(-c3ccccc3)cc2)C1` ; retrieve measured growth.
Output line: -44

Input line: Report growth for `Cc1cccc(NC(=O)c2sc3nc4c(cc3c2N)CN(Cc2ccccc2)CC4)c1C` please.
Output line: 13.1

Input line: Please look up its growth: `COc1cc(-c2csc(NC(=O)Nc3ccc(C(F)(F)F)cc3)n2)cc(OC)c1OC`
Output line: 7.21

Input line: Would you kindly share the measured growth for O=C(Nc1ccc(N=Cc2ccccc2O)cc1)NC1C=c2ccccc2=CC1 (stereo not given) ?
Output line: 87
